- targetDesc: Signal transducer and activator of transcription 3 (Homo sapiens) (UniProt P40763)
- Sequence (P40763 whole entry, looked up): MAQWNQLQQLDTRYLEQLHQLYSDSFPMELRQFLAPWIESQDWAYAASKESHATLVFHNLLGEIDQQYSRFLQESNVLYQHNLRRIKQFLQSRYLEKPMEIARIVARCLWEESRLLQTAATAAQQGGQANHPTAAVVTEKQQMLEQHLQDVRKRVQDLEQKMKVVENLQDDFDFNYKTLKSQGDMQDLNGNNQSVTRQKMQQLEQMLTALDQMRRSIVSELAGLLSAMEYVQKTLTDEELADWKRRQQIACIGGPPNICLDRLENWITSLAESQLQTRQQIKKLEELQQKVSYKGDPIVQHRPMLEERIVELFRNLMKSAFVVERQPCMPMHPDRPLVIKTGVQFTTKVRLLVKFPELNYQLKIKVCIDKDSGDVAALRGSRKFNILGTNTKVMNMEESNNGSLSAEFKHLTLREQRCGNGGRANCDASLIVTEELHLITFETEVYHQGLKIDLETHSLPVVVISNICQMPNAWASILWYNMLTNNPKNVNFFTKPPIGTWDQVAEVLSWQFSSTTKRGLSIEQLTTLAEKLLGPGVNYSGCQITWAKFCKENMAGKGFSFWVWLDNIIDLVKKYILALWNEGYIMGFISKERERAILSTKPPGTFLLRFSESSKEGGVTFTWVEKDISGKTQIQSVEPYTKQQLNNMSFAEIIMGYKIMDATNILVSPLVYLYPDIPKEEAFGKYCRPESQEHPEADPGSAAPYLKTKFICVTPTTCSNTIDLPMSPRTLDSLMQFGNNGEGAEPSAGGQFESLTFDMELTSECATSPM
- assayDetails: ATG_STAT3_CIS: Attagene CIS-FACTORIAL HepG2 Assay for human Signal Transducer and Activator of Transcription 3 (STAT3) (AID 2282963)
- measurementParameters: HepG2, Attagene cis-factorial STAT3 reporter transcription; actives raise or lower the signal
The source made the active and inactive calls. Rule for the calls: active = hit-call score of the fitted dose curve at least 0.9, where 1 is the maximum; inactive = score below 0.9.
Outcome (select one): active, inactive

Please review the following examples before continuing.
[
  {
    "substanceSmiles": "C=CC(=C)CC/C=C(\\C)CCC=C(C)C",
    "qualitativeLabel": "inactive"
  },
  {
    "substanceSmiles": "O=S(=O)(c1ccc(OCc2ccccc2)cc1)c1ccccc1O",
    "qualitativeLabel": "inactive"
  },
  {
    "substanceSmiles": "O=C1NS(=O)(=O)c2ccccc21",
    "qualitativeLabel": "inactive"
  },
  {
    "substanceSmiles": "CCCCCCOC(=O)c1ccc(O)cc1",
    "qualitativeLabel": "inactive"
  },
  {
    "substanceSmiles": "COc1cc(OC)nc(NC(=O)NS(=O)(=O)Nc2ccccc2C(=O)N(C)C)n1",
    "qualitativeLabel": "inactive"
  }
]

Let's switch to this compound now.
Challenge: # lookup: test call for Cc1cc(Cc2cc(C)cc(C(C)(C)C)c2O)c(O)c(C(C)(C)C)c1
Response given: active
